Attribution: ChEMBL document CHEMBL3098024

Would you kindly list IC50 for each of these compounds?
procedure.summary: Inhibition of telomerase in human SW1116 cells after 24 hrs by TRAP-PCR-ELISA assay
Type: cell-based
condition.parameters: sw 1116
Answers are plain numbers, in µM.

Record excerpt, results attached:
- O=C(CSc1nnc(-c2ccncc2)o1)N/N=C/c1ccccc1[N+](=O)[O-]: 18.2
- O=C(CSc1nnc(-c2ccncc2)o1)N/N=C/c1cccs1: 13.5
- O=C(CSc1nnc(-c2ccncc2)o1)N/N=C/c1ccc(Cl)cc1Cl: 17.8
- O=C(CSc1nnc(-c2ccncc2)o1)N/N=C/c1ccccc1: 9.72

Give IC50 for all compounds that follow.
1. COc1ccc(/C=N/NC(=O)CSc2nnc(-c3ccncc3)o2)cc1
2. O=C(CSc1nnc(-c2ccncc2)o1)N/N=C/c1ccccc1O
3. Cc1ccc(/C=N/NC(=O)CSc2nnc(-c3ccncc3)o2)cc1
4. O=C(CSc1nnc(-c2ccncc2)o1)N/N=C/c1ccc(O)cc1
5. O=C(CSc1nnc(-c2ccncc2)o1)N/N=C/C=C/c1ccccc1

[9.04, 3.97, 8.51, 5.36, 6.57]

For each of the items listed, what is its IC50?
1. O=C(CSc1nnc(-c2ccncc2)o1)N/N=C/c1cccc(F)c1
2. O=C(CSc1nnc(-c2ccncc2)o1)N/N=C/c1cc(Br)cc(Br)c1O

1. 15.7
2. 7.12
